Entry source: ChEMBL document CHEMBL1124148

# System: SCC-25
# Test summary: Inhibitory concentration against growth of SCC25/R1 cell line
# Type: functional, cell-based
# Conditions: Homo sapiens
Value type: IC50 (nM)
One number for each entry, in nM.

Q: Query (compound): CN(Cc1cnc2nc(N)nc(N)c2n1)c1ccc(C(=O)N[C@@H](CCC(=O)O)C(=O)O)cc1 [METHOTREXATE] ; field requested: IC50
Result: 150

---

# Test summary: Inhibition of FPGS from mouse liver in the presence of folic acid
# Assay type: functional
Kindly supply the reported Ki values for the records listed here.

Guide cases for Ki, answers given:
{"Compound": "Nc1nc(N)c2nc(CNc3ccc(C(=O)NC(CCCNC(=O)c4ccccc4)C(=O)O)cc3)cnc2n1 (centres undefined)", "Ki": "> 100 µM"}
{"Compound": "Nc1nc(N)c2nc(CN(C=O)c3ccc(C(=O)NC(CCCNC(=O)c4ccc(Cl)cc4)C(=O)O)cc3)cnc2n1 (centres undefined)", "Ki": "> 100 µM"}
{"Compound": "Nc1nc(N)c2nc(CN(C=O)c3ccc(C(=O)NC(CCCNC(=O)c4ccccc4)C(=O)O)cc3)cnc2n1 (centres undefined)", "Ki": "> 1000 µM"}

Continue with the compound presented below.
Q: Query (compound): Nc1nc(N)c2nc(CN(C=O)c3ccc(C(=O)NC(CCCNC(=O)CCC(=O)O)C(=O)O)cc3)cnc2n1 (centres undefined) ; field requested: Ki
Result: > 100 µM
